Every entry's value here was drawn from ChEMBL document CHEMBL5154889.

Each entry below carries its recorded IC50.
Molecular target: Inositol hexakisphosphate kinase 2 (Homo sapiens, UniProt Q9UHH9)
Sequence (Q9UHH9 whole entry): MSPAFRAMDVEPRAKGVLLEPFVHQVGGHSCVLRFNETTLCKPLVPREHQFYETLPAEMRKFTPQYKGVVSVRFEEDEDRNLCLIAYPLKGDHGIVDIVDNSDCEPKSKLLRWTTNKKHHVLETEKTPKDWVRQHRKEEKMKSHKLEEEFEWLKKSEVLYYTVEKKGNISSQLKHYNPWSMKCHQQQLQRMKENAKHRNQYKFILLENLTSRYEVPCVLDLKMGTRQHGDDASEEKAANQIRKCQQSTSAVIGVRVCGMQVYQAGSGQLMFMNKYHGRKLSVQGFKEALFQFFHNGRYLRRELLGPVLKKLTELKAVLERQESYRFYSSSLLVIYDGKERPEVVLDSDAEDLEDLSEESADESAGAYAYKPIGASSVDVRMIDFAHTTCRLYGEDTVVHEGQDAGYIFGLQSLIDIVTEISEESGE
Experiment: Inhibition of N-terminal 6His-tagged/TEV cleavage site fused recombinant human IP6K2 expressed in Escherichia coli assessed as inorganic phosphate release using InsP6 as substrate in presence of ATP measured after 60 to 120 mins by malachite green based colorimetric - DIPP1 coupled enzyme assay

Please review the following examples before continuing.
record_smiles=O=[N+]([O-])c1ccc(CNc2nc(NCc3cccc(C(F)(F)F)c3)nc3[nH]cnc23)cc1 assay_value="2000 nM"
record_smiles=CC(C)C(=O)Nc1ccc(-c2onc3ccc(C(=O)O)cc23)cc1 assay_value="820 nM"
record_smiles=CC(C)NC(=O)c1ccc(-c2onc3ccc(C(=O)O)cc23)cc1 assay_value="350 nM"

Now turn to the next molecule.
[Q] Using known records, supply IC50 for O=C(O)c1ccc2noc(-c3cccc(-c4ccccc4)c3)c2c1
[A] 130 nM

====

molecular target: Inositol hexakisphosphate kinase 3 (Homo sapiens, UniProt Q96PC2); experiment: Inhibition of N-terminal 6His-sumo-tagged recombinant human IP6K3 expressed in Escherichia coli assessed as inorganic phosphate release using InsP6 as substrate in presence of ATP measured after 60 to 120 mins by malachite green based colorimetric - DIPP1 coupled enzyme assay
Each entry below carries its recorded IC50.
// note: answer is a bare numeric in µM

Please review the following examples before continuing.
record_smiles=O=[N+]([O-])c1ccc(CNc2nc(NCc3cccc(C(F)(F)F)c3)nc3[nH]cnc23)cc1 assay_value=14.5
record_smiles=O=C(O)c1ccc2noc(-c3cccc(NC(=O)C4CC4)c3)c2c1 assay_value=2.81
record_smiles=O=C(O)c1ccc2noc(-c3cccc(C(F)(F)F)c3)c2c1 assay_value=4.62
record_smiles=O=C(O)c1ccc2noc(-c3cccc(Oc4ccccc4)c3)c2c1 assay_value=0.85
record_smiles=O=C(O)c1ccc2noc(-c3ccc(NC(=O)c4ccncn4)cc3)c2c1 assay_value=0.43

[Q] Using known records, supply IC50 for O=C(O)c1ccc2noc(-c3ccccc3)c2c1
[A] 2.69

[Q] Using known records, supply IC50 for O=C(O)c1ccc2noc(-c3ccc(Cc4ccccc4)cc3)c2c1
[A] 1.29

[Q] Using known records, supply IC50 for O=C(O)c1ccc2noc(-c3ccc(N4CCCC4=O)cc3)c2c1
[A] 2.17

[Q] Using known records, supply IC50 for O=C(O)c1ccc2noc(-c3cccc(Oc4ncc(Cl)cc4Cl)c3)c2c1
[A] 3.09

[Q] Using known records, supply IC50 for O=C(O)c1ccc2noc(-c3ccc(Oc4ccccc4)cc3)c2c1
[A] 0.55

[Q] Using known records, supply IC50 for CC(C)NC(=O)c1ccc(-c2onc3ccc(C(=O)O)cc23)cc1
[A] 0.34

[Q] Using known records, supply IC50 for O=C(O)c1ccc2noc(-c3ccc(NC(=O)C4CCCC4)cc3)c2c1
[A] 0.24

[Q] Using known records, supply IC50 for O=C(O)/C=C/c1ccc2noc(-c3ccc(-c4ccccc4)cc3)c2c1
[A] 0.2

====

assay: Clearance in diet-induced obesity CD1 mouse at 5 mg/kg, iv measured up to 24 hrs post-dosing by LC-MS/MS analysis; assay type: ADME, organism-based; conditions: in vivo
measured.parameter: clearance (mL/min/kg)
// note: answer is a bare numeric in mL/min/kg

[Q] Using known records, supply clearance for O=C(O)c1ccc2noc(-c3ccc(-c4ccccc4)cc3)c2c1
[A] 13.7

====

target: Inositol hexakisphosphate kinase 3 (Homo sapiens); test: Inhibition of recombinant full length human IP6K3 assessed as inorganic phosphate release measured after 2 hrs by ADP-Glo Max assay
measured.parameter: pIC50
// field semantics: pIC50 = negative decimal log of concentration (mol/L)

[Q] Using known records, supply pIC50 for O=C(O)c1ccc2c(c1)C1(CCN(C(=O)c3ccc(Cl)cc3)CC1)C(=O)N2
[A] 8.10

====

Target: Inositol hexakisphosphate kinase 2 (Homo sapiens, UniProt Q9UHH9)
Sequence (Q9UHH9 whole entry): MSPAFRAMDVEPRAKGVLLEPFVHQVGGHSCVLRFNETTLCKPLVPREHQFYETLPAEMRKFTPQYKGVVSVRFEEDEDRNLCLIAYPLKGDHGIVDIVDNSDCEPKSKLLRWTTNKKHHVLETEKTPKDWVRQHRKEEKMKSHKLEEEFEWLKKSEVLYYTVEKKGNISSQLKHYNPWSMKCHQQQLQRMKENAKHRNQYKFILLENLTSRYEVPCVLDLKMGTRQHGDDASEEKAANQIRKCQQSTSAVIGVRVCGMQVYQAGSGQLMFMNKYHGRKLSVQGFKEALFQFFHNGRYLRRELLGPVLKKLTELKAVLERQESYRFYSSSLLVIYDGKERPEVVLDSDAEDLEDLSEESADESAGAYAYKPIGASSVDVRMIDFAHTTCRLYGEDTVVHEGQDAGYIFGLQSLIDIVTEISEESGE
Experiment: Inhibition of recombinant full length human IP6K2 assessed as inorganic phosphate release measured after 30 mins by ADP-Glo Max assay
measured.parameter: pIC50
// field semantics: pIC50 = negative decimal log of concentration (mol/L)

[Q] Using known records, supply pIC50 for O=C(O)c1ccc2c(c1)C1(CCN(C(=O)c3ccc(Cl)cc3)CC1)C(=O)N2
[A] 7.60

====

target: Inositol hexakisphosphate kinase 1 (Homo sapiens, UniProt Q92551); test: Inhibition of recombinant full length human IP6K1 assessed as inorganic phosphate release measured after 30 mins by ADP-Glo Max assay
Sequence (Q92551 whole entry): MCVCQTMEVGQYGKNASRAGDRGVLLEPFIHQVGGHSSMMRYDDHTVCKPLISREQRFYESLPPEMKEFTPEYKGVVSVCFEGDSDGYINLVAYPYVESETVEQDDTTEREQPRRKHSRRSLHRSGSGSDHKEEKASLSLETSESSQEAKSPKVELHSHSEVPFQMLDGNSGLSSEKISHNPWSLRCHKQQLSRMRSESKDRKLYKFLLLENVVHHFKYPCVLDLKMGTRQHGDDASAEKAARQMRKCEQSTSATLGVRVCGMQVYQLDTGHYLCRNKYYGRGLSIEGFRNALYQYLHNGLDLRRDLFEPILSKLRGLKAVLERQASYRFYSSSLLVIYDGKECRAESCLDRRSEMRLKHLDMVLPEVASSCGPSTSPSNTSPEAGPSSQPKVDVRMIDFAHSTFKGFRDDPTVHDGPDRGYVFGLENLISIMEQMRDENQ
measured.parameter: pIC50
// field semantics: pIC50 = negative decimal log of concentration (mol/L)

[Q] Using known records, supply pIC50 for O=C(O)c1ccc2c(c1)C1(CCN(C(=O)c3ccc(Cl)cc3)CC1)C(=O)N2
[A] 7.57

====

Molecular target: Inositol hexakisphosphate kinase 3 (Homo sapiens, UniProt Q96PC2)
Sequence (Q96PC2 whole entry): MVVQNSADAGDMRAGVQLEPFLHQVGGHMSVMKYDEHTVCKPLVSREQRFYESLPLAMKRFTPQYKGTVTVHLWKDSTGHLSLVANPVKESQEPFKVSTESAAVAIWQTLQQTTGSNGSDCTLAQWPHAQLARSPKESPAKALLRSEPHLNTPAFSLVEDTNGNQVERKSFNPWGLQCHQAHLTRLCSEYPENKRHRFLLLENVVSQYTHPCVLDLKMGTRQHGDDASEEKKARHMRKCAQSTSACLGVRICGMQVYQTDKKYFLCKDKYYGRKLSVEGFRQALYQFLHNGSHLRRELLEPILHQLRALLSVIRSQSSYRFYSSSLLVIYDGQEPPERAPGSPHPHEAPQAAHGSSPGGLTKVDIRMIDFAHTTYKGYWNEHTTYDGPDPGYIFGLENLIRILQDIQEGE
Experiment: Inhibition of N-terminal 6His-sumo-tagged recombinant human IP6K3 expressed in Escherichia coli assessed as inorganic phosphate release using InsP6 as substrate in presence of ATP measured after 60 to 120 mins by malachite green based colorimetric - DIPP1 coupled enzyme assay
Each entry below carries its recorded pIC50.
// field semantics: pIC50 = negative decimal log of concentration (mol/L)

[Q] Using known records, supply pIC50 for O=C(O)c1ccc2noc(-c3ccc(-c4ccncc4)cc3)c2c1
[A] 6.17

[Q] Using known records, supply pIC50 for CC(C)C(=O)Nc1ccc(-c2onc3ccc(C(=O)O)cc23)cc1
[A] 6.68

[Q] Using known records, supply pIC50 for O=C(O)/C=C/c1ccc2noc(-c3ccc(OC(F)(F)F)cc3)c2c1
[A] 5.08

[Q] Using known records, supply pIC50 for O=C(O)/C=C/c1ccc2noc(-c3ccc(Oc4ccccc4)cc3)c2c1
[A] 6.12

[Q] Using known records, supply pIC50 for O=C(O)c1ccc2noc(-c3ccc(N4CCCCC4)cc3)c2c1
[A] 5.75

====

target: CYP2C9 (Homo sapiens, UniProt P11712); test: Inhibition of CYP2C9 in human liver microsomes at 10 uM in presence of NADPH by LC-MS/MS analysis; format: ADME, Microsome
Sequence (P11712 whole entry): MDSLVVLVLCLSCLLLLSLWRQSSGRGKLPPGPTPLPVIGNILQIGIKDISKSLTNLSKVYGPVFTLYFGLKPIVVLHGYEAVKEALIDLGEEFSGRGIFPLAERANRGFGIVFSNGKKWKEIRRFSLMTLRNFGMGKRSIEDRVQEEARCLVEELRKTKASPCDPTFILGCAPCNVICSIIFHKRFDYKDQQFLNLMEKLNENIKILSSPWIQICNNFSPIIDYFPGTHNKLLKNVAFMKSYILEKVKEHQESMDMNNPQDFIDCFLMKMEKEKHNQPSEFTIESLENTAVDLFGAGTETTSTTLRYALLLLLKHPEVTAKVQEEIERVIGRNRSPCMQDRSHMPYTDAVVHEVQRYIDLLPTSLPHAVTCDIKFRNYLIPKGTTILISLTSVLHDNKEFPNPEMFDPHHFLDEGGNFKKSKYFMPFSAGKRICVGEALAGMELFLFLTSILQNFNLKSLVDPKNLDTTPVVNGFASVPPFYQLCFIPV
measured.parameter: inhibition at 10 µM (%)
// note: answer is a bare numeric in %

[Q] # lookup: CYP2C9 (Homo sapiens, UniProt P11712) inhibition at 10 µM, key = O=C(O)c1ccc2noc(-c3ccc(-c4ccccc4)cc3)c2c1
[A] 36
